molecular target: human NK1 receptor (Homo sapiens, UniProt P25103); test: NK1 receptor binding, [3H]substance P displacement, CHO cell membranes; details: first value of the cell pKi NK1/NK3; human NK1 receptor, [3H]substance P
Sequence (P25103 whole entry): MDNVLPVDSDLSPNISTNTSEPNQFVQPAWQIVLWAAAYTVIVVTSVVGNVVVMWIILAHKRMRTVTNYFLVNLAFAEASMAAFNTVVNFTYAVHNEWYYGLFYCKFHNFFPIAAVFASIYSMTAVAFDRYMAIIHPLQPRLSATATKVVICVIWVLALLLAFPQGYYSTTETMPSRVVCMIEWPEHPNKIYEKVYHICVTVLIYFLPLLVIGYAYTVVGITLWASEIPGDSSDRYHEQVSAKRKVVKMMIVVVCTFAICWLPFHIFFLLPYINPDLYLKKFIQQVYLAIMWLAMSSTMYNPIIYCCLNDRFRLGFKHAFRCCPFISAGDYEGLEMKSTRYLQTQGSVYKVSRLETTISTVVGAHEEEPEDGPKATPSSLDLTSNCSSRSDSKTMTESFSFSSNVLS
QUANTITY_MEASURED: Ki (nM)

Example entries and their recorded answers appear below.
Returns the measured Ki for the input compound. Input: COc1cc(Cl)cc(C(C)(C)C(=O)N(C)c2cnc(N3C[C@H](O)C[C@H]3CO)cc2-c2ccccc2C)c1 [Example 18]
1.17

Returns the measured Ki for the input compound. Input: CN(C(=O)C(C)(C)c1cc(C(F)(F)F)cc(C(F)(F)F)c1)c1cnc(N[C@@H]2CCC[C@H]2O)cc1-c1ccccc1Cl [Example 152]
0.759

Returns the measured Ki for the input compound. Input: CN(C(=O)C(C)(C)c1cc(C(F)(F)F)cc(C(F)(F)F)c1)c1cnc(N2CCCC[C@@H]2CO)cc1-c1ccccc1Cl [Example 160]
2.04

Returns the measured Ki for the input compound. Input: Cc1ccc(F)cc1-c1cc(N2CCC[C@H]2CO)ncc1N(C)C(=O)C(C)(C)c1cc(C(F)(F)F)cc(C(F)(F)F)c1 [Example 166]
3.8

Returns the measured Ki for the input compound. Input: CN(C(=O)C(C)(C)c1cc(C(F)(F)F)cc(C(F)(F)F)c1)c1cnc(N2CC[C@@H](O)[C@@H](CO)C2)cc1-c1ccccc1Cl (racemic) [Example 194]
1.66

I: CN(C(=O)C(C)(C)c1cc(C(F)(F)F)cc(C(F)(F)F)c1)c1cnc(N2C[C@H](O)C[C@@H](O)C2)cc1-c1ccccc1Cl [Example 180]
II: Cc1cc(F)ccc1-c1cc(N2C[C@H](O)C[C@H]2CO)ncc1N(C)C(=O)C(C)(C)c1cc(F)cc(C(F)(F)F)c1 [Example 25]
Larger number for Ki: I , or II ? Write down the label attached to your selection.
I
(I: 1.62 nM, II: 0.933 nM)

a: CC(=O)N1CCCN(c2cc(-c3ccccc3Cl)c(N(C)C(=O)C(C)(C)c3cc(C(F)(F)F)cc(C(F)(F)F)c3)cn2)CC1 [Example 63]
b: Cc1ccccc1-c1cc(N2C[C@@H](O)[C@@H](O)C2)ncc1N(C)C(=O)C(C)(C)c1cc(C(F)(F)F)cc(C(F)(F)F)c1 [Example 184]
c: CC(=O)N[C@H]1CCN(c2cc(-c3ccc(F)cc3C)c(N(C)C(=O)C(C)(C)c3cc(C(F)(F)F)cc(C(F)(F)F)c3)cn2)C1 [Example 99]
List these items ordered by Ki, big to small. Order the labels as requested and list them.
a, b, c

P: CN(C(=O)C(C)(C)c1cc(C(F)(F)F)cc(C(F)(F)F)c1)c1cnc(NCCO)cc1-c1ccc(Cl)cc1Cl [Example 70]
Q: Cc1cc(C)cc(C(C)(C)C(=O)N(C)c2cnc(N3C[C@H](O)C[C@H]3CO)cc2-c2ccccc2C)c1 [Example 20]
Larger number for Ki: P , or Q ? Write down the label attached to your selection.
P

###

Target: Recombinant human NK3 (hNK3) receptor (Homo sapiens, UniProt P29371)
Construct: expressed in transfected cells
Sequence (P29371 1-465): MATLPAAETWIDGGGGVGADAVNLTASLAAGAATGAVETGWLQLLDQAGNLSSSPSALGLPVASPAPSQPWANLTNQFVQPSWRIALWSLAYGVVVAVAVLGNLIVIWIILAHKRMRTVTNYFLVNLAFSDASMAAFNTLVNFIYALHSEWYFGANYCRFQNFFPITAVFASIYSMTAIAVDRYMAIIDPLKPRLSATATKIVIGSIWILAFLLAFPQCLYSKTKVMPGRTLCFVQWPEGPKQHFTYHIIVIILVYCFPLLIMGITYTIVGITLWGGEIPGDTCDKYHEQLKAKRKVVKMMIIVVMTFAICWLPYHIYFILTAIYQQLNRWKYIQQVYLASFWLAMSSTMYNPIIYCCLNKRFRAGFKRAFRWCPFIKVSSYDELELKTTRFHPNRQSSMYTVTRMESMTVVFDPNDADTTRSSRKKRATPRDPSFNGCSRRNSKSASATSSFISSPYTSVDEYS
Test: NK3 receptor binding, [3H]SR142801 displacement, membrane preparations
Settings: second value of the cell NK1/NK3; read-out: pKi NK3 (converted)
QUANTITY_MEASURED: Ki (nM)

Returns the measured Ki for the input molecule. Input: `Cc1c(F)cccc1-c1cc(N2CC[C@H](O)[C@H]2CO)ncc1N(C)C(=O)C(C)(C)c1cc(C(F)(F)F)cc(C(F)(F)F)c1`
0.575

Returns the measured Ki for the input molecule. Input: `CN(C(=O)C(C)(C)c1cc(C(F)(F)F)cc(C(F)(F)F)c1)c1cnc(N2C[C@H](O)C[C@H]2CO)cc1-c1ccccc1O`
4.47

Returns the measured Ki for the input molecule. Input: `CN(C(=O)C(C)(C)c1cc(C(F)(F)F)cc(C(F)(F)F)c1)c1cnc(N2C[C@H](O)C[C@H]2CO)cc1-c1cccc(F)c1`
4.68

Returns the measured Ki for the input molecule. Input: `CN(C(=O)C(C)(C)c1cc(C(F)(F)F)cc(C(F)(F)F)c1)c1cnc(N2CC[C@H](O)[C@H]2CO)cc1-c1ccc(F)cc1C=O`
1.55

a: COc1cc(OC)cc(C(C)(C)C(=O)N(C)c2cnc(N3C[C@H](O)C[C@H]3CO)cc2-c2ccc(F)cc2C)c1
b: Cc1ccc(F)cc1-c1cc(N2CC[C@H](O)[C@H]2CO)ncc1N(C)C(=O)C(C)(C)c1cc(C(F)(F)F)cc(C(F)(F)F)c1
Larger number for Ki: a , or b ? Write down the label attached to your selection.
a

A: CN(C(=O)C(C)(C)c1cc(C(F)(F)F)cc(C(F)(F)F)c1)c1cnc(N2C[C@H](O)C[C@H]2CO)cc1-c1ncccc1Cl
B: CN(C(=O)C(C)(C)c1cc(C(F)(F)F)cc(C(F)(F)F)c1)c1cnc(N2CCC[C@H]2CO)cc1-c1cccc(Cl)c1Cl
Larger number for Ki: A , or B ? Write down the label attached to your selection.
A
